Numbers sourced from patent US8507535B2.

Target: human NK3 receptor (Homo sapiens (Human), UniProt P29371)
Sequence (P29371 whole entry): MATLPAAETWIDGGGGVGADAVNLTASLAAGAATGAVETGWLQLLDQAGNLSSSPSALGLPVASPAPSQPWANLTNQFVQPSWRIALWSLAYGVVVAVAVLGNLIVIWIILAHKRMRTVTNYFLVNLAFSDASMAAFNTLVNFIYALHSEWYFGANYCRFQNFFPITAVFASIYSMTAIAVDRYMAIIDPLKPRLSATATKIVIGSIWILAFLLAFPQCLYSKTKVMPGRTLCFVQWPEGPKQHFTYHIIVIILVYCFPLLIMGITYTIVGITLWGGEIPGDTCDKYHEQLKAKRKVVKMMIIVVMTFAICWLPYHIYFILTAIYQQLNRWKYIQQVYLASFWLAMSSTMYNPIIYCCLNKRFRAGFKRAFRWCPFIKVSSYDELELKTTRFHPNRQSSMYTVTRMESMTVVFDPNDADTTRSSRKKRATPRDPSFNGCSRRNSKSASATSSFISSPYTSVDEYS
Assay: [3H]SR142801 competition binding assay
Conditions: membranes from HEK293 cells transiently expressing recombinant human NK3 receptor; [3H]SR142801 radioligand; read-out: Ki (uM) hNK3
# Ki annotations
# unit: µM | format: bare number

{"columns": ["MOLECULE", "MEASUREMENT TARGET", "Ki [µM]"],
 "data": [
  ["COc1ccc(C(=O)N2C[C@H](c3ccc(Cl)cc3)[C@@](C)(COc3ccc(Cl)cn3)C2)cn1 (racemic)", "human NK3 receptor (Homo sapiens (Human), UniProt P29371)", 0.0563],
  ["C[C@]1(COc2ccc(Cl)cn2)CN(C(=O)c2ccnc(Cl)c2)C[C@@H]1c1ccc(Cl)cc1 (racemic)", "human NK3 receptor (Homo sapiens (Human), UniProt P29371)", 0.0618],
  ["CC(=O)N1CCC(C(=O)N2C[C@H](c3ccc(Cl)cc3)[C@@](C)(COc3ccc(Cl)cn3)C2)CC1 (racemic)", "human NK3 receptor (Homo sapiens (Human), UniProt P29371)", 0.0106]
]}

Next up:
Query: Value lookup for Ki; key = C[C@]1(COc2ccc(Cl)cn2)CN(C(=O)c2ccc(C#N)cc2)C[C@@H]1c1ccc(Cl)cc1 (racemic)
Response: 0.0451

----------
Molecular target: human NK3 receptor (Homo sapiens (Human))
Experiment: [3H]SR142801 competition binding assay
Conditions: membranes from HEK293 cells transiently expressing recombinant human NK3 receptor; [3H]SR142801 radioligand; second half of table, head prints nM; read-out: Ki (nM) hNK3
# Ki values compiled below
// note: answer is a bare numeric in nM

Look over these answered cases.
{"columns": ["MOLECULE", "MEASUREMENT TARGET", "Ki, nM"],
 "data": [
  ["Cc1ccc(N2CCC(C(=O)N3C[C@H](c4ccc(Cl)cc4)[C@@](C)(COc4ccc(Cl)cn4)C3)CC2)nc1 (racemic) [Example 15]", "human NK3 receptor (Homo sapiens (Human))", 15],
  ["C[C@]1(COc2ccc(Cl)cn2)CN(C(=O)C2CCN(c3ccc(Cl)cn3)CC2)C[C@@H]1c1ccc(Cl)cc1 (racemic) [Example 20]", "human NK3 receptor (Homo sapiens (Human))", 19.3]
]}

Query: I have this molecule here, C[C@]1(COc2ccc(Cl)cn2)CN(C(=O)C2CCN(c3ccc(C#N)cn3)CC2)C[C@@H]1c1ccc(Cl)cc1 (racemic) [Example 16] , and I need its recorded Ki.
Response: 3.7

----------
Each entry below lists one item and its recorded Ki value.
Target: human NK3 receptor (Homo sapiens (Human), UniProt P29371)
Assay: [3H]SR142801 competition binding assay
Conditions: membranes from HEK293 cells transiently expressing recombinant human NK3 receptor; [3H]SR142801 radioligand; second half of table, head prints nM; read-out: Ki (nM) hNK3
Answer format: numeric, nM implied, no suffix.

{"columns": ["COMPOUND", "Ki (nM)"],
 "data": [
  ["CC(=O)c1ccc(N2CCC(C(=O)N3C[C@H](c4ccc(Cl)cc4)[C@@](C)(COc4ccc(Cl)cn4)C3)CC2)nc1 (racemic)", 5.9],
  ["C[C@]1(COc2ccc(Cl)cn2)CN(C(=O)C2CCN(c3ccc(C#N)nc3)CC2)C[C@@H]1c1ccc(Cl)cc1 (racemic)", 4.4]
]}

Query: Ki; subject: C[C@]1(COc2ccc(Cl)cn2)CN(C(=O)C2CCN(c3ccc(C#N)cc3)CC2)C[C@@H]1c1ccc(Cl)cc1 (racemic)
Response: 2.3

----------
Target: human NK3 receptor (Homo sapiens (Human), UniProt P29371)
Assay: [3H]SR142801 competition binding assay
Conditions: membranes from HEK293 cells transiently expressing recombinant human NK3 receptor; [3H]SR142801 radioligand; second half of table, head prints nM; read-out: Ki (nM) hNK3
Labelling field: enter satisfied if recorded Ki is less than 30 nM. Enter not satisfied if it equals or exceeds that cut-off.

A selection of reference data follows.
{"columns": ["COMPOUND", "CATEGORY LABEL"],
 "data": [
  ["C[C@]1(COc2ccc(Cl)cn2)CN(C(=O)c2ccc(C#N)nc2)C[C@@H]1c1ccc(Cl)cc1 (racemic) [Example 21]", "not satisfied"],
  ["COc1ccc(N2CCC(C(=O)N3C[C@H](c4ccc(Cl)cc4)[C@@](C)(COc4ccc(Cl)cn4)C3)CC2)nn1 [Example 26]", "satisfied"],
  ["C[C@]1(COc2ccc(Cl)cn2)CN(C(=O)C2CCN(c3ccc(F)cn3)CC2)C[C@@H]1c1ccc(Cl)cc1 (racemic) [Example 19]", "satisfied"],
  ["C[C@]1(COc2ccc(Cl)cn2)CN(C(=O)C2CCN(c3ccc(C(F)(F)F)cn3)CC2)C[C@@H]1c1ccc(Cl)cc1 (racemic) [Example 22]", "satisfied"],
  ["C[C@]1(COc2ccc(Cl)cn2)CN(C(=O)c2ccc(N3CCCCC3=O)cc2)C[C@@H]1c1ccc(Cl)cc1 (racemic) [Example 27]", "not satisfied"]
]}

Query: # strict comparison: is reported Ki < 30 nM? input = Cc1nc(-c2ccc(C(=O)N3C[C@H](c4ccc(Cl)cc4)[C@@](C)(COc4ccc(Cl)cn4)C3)cc2)no1 (racemic) [Example 24]
Response: satisfied

----------
Molecular target: human NK3 receptor (Homo sapiens (Human))
Assay: [3H]SR142801 competition binding assay
Details: membranes from HEK293 cells transiently expressing recombinant human NK3 receptor; [3H]SR142801 radioligand; read-out: Ki (uM) hNK3
MEASURED ENDPOINT: log10(Ki) (log10 of the value in µM)
Recorded Ki (log10, µM)

The cases that follow already have their log10(Ki) on record.
{"columns": ["COMPOUND", "MEASURED ENDPOINT", "QUANTITATIVE READOUT"],
 "data": [
  ["C[C@]1(COc2ccc(Cl)cn2)CN(C(=O)N2CCN(S(C)(=O)=O)CC2)C[C@@H]1c1ccc(Cl)cc1 (racemic)", "log10(Ki)", -1.32],
  ["Cc1noc(-c2ccc(C(=O)N3C[C@H](c4ccc(Cl)cc4)[C@@](C)(COc4ccc(Cl)cn4)C3)cc2)n1 (racemic)", "log10(Ki)", -2.37],
  ["C[C@]1(COc2ccc(Cl)cn2)CN(C(=O)C2CCN(C3CCCCC3)CC2)C[C@@H]1c1ccc(Cl)cc1 (racemic)", "log10(Ki)", -1.82],
  ["CC(C)CN1CCC(C(=O)N2C[C@H](c3ccc(Cl)cc3)[C@@](C)(COc3ccc(Cl)cn3)C2)CC1 (racemic)", "log10(Ki)", -1.65]
]}

Query: Form: Entry = CC1(C(=O)N2CCC(C(=O)N3C[C@H](c4ccc(Cl)cc4)[C@@](C)(COc4ccc(Cl)cn4)C3)CC2)CC1 (racemic) | System = human NK3 receptor (Homo sapiens (Human)) | log10(Ki) = ____
Response: -2.14

Query: Test system human NK3 receptor (Homo sapiens (Human)); read-out log10(Ki); what value for C[C@]1(COc2ccc(Cl)cn2)CN(C(=O)C2CCOCC2)C[C@@H]1c1ccc(Cl)cc1 (racemic) ?
Response: -1.06

Query: Please state recorded log10(Ki) (tested on human NK3 receptor (Homo sapiens (Human))) of CC(C)C(=O)N1CCC(C(=O)N2C[C@H](c3ccc(Cl)cc3)[C@@](C)(COc3ccc(Cl)cn3)C2)CC1 (racemic)
Response: -2.06

Query: Short answer please: log10(Ki), human NK3 receptor (Homo sapiens (Human)), entry C[C@]1(COc2ccc(Cl)cn2)CN(C(=O)c2ccc(-n3cccn3)nc2)C[C@@H]1c1ccc(Cl)cc1 (racemic)
Response: -1.45
